Read-out: serum amyloid A (SAA), SAA1 (gene 6288)
assay.overview: BSK_CASM3C_SAA: BioMAP Diversity Plus: CASM3C Assay for serum amyloid A (SAA) Biomarker Activity (AID 2283049);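 further: SAA protein level quantified by ELISA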
condition.description: primary human coronary artery smooth muscle cells; actives raise or lower the signal
Activity calls are given as the source filed them. How the source made its calls: active means hit-call score of the fitted dose curve at least 0.9, where 1 is the maximum; inactive means score below 0.9.
Valid outcomes are listed here; reply with one: active, inactive

Worked examples, 2 compounds total:
# chemical.structure, qualitative.label
rows = [
    ("CCOC(=O)/C=C\\C(=O)OCC", "inactive"),
    ("CC/C=C\\C/C=C\\C/C=C\\CCCCCCCC(=O)OC", "active"),
]

API: the following record is the query input.
Query block: Could you please tell me the result logged for O=C(Cl)c1c(Cl)c(Cl)c(C(=O)Cl)c(Cl)c1Cl in this assay?
Result block: inactive

* * *

assay.overview: ATG_SREBP_CIS: Attagene CIS-FACTORIAL HepG2 Assay for human Sterol Regulatory Element Binding (SREBP) (AID 2282962)
condition.description: HepG2 Attagene cis-factorial SREBP reporter, mRNA; actives raise or lower the signal
Calls of active or inactive are those of the source. How the source made its calls: active means hit-call score of the fitted dose curve at least 0.9, where 1 is the maximum; inactive means score below 0.9.
Select the correct class. Options are active, inactive and nothing else.

# compound, qualitative.label
data = [
    ("COCC(=O)O", "inactive"),
]

Query block: Please state the recorded outcome for this compound: CCCC(CC)c1ccccc1 (configuration not stated)
Result block: active

Query block: Next: Cc1c(C(=O)c2c[nH]n(C)c2=O)ccc(S(C)(=O)=O)c1C1=NOCC1
Result block: inactive

Query block: Please do the same for Cc1c[nH]c(=O)[nH]c1=O as well.
Result block: inactive

Query block: How about this compound: CCCCC1C(=O)N(c2ccccc2)N(c2ccccc2)C1=O
Result block: inactive

Query block: And C=C(C)[C@@H]1CC=C(C)CC1 ?
Result block: inactive

Query block: Record: COC(=O)c1ccc(C(=O)OC)c(C(=O)OC)c1
Result block: inactive

Query block: And then CCCCCC(=O)OCC , what is it?
Result block: inactive

Query block: For CCCCCCCOC(=O)c1ccc(O)cc1 then?
Result block: inactive

Query block: Likewise for CCCCC(=O)O ?
Result block: inactive

Query block: Follow-up entry: CC1OC(=O)C(C)OC1=O (configuration not stated)
Result block: inactive

Query block: Moving on to CCc1cccc(CC)c1
Result block: inactive

Query block: Subsequent entry: CCCCCCCCCCCCC
Result block: inactive

Query block: Also, O=C(O[C@@H]1Cc2c(O)cc(O)cc2O[C@@H]1c1cc(O)c(O)c(O)c1)c1cc(O)c(O)c(O)c1 please.
Result block: inactive

Query block: Please give the result for Cc1cc(=O)[nH]c(=O)[nH]1 too.
Result block: inactive

Query block: Again, but for CCCCOCCOCCOC(C)=O
Result block: inactive

Query block: Now try C=Cc1cccc(C)c1 .
Result block: inactive

Query block: What about CCCCNC(=S)NCCCC ?
Result block: inactive

Query block: C=CCNCC=C ?
Result block: inactive

Query block: Then what about the compound CCCC=C(C=O)CC ?
Result block: inactive

Query block: Same again, this time with NC(=O)Nc1ccccc1
Result block: inactive

Query block: Also need C=C[Si](OCCOC)(OCCOC)OCCOC , thanks.
Result block: inactive

Query block: And for CC(C)(c1ccccc1)c1ccc(Nc2ccc(C(C)(C)c3ccccc3)cc2)cc1 ?
Result block: inactive

Query block: Could you do the same for CC1=C(O)C(=O)C(C)O1 (configuration not stated) , please?
Result block: inactive

Query block: Again, but for Cn1cccc1
Result block: inactive

Query block: Try CCCCCCCCCCCCCC(=O)OC(C)C next.
Result block: inactive

Query block: Ok, now C=C(C)C(=O)OCCOC(=O)C(=C)C
Result block: inactive

Query block: Now give it for O=c1c(O)c(-c2ccc(O)cc2O)oc2cc(O)cc(O)c12 too.
Result block: inactive
